molecular target: Endothelin receptor, ET-A/ET-B (Homo sapiens) (UniProt P24530+P25101); experiment: Selectivity ratio of inhibitory activity towards endothelin receptor A to endothelin receptor B (ETB/ETA); assay type: protein assay
Sequence (P25101 whole entry, looked up, one chain of several): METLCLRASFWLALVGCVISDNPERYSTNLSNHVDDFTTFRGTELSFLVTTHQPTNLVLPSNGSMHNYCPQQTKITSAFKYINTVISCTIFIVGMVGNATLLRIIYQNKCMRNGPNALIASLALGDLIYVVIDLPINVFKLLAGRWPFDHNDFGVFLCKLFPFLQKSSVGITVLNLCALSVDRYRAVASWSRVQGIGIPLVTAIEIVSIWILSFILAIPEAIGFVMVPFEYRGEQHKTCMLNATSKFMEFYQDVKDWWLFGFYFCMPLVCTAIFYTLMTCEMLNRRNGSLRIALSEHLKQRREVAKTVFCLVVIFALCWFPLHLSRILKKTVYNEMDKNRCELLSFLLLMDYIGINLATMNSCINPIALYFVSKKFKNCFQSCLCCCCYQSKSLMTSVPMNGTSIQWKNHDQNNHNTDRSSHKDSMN
experimental.endpoint: Selectivity ratio

Query Selectivity ratio on Endothelin receptor, ET-A/ET-B (Homo sapiens) (UniProt P24530+P25101) for CCC(CO)Cc1cc(OC)ccc1[C@@H]1c2nc(NC(C)C)ccc2[C@H](c2ccc3c(c2)OCO3)[C@H]1C(=O)O (stereo in doubt; form 2)
910

Also check CCC(CO)Cc1cc(OC)ccc1[C@@H]1c2nc(NC(C)C)ccc2[C@H](c2ccc3c(c2)OCO3)[C@H]1C(=O)O (stereo in doubt; form 1)
350

Also check COc1ccc([C@@H]2c3nc(NC(C)C)ccc3[C@H](c3ccc4c(c3)OCO4)[C@H]2C(=O)O)c(CC(O)CO)c1 (stereo in doubt)
120

Also check COc1ccc([C@@H]2c3nc(NC(C)C)ccc3[C@H](c3ccc4c(c3)OCO4)[C@H]2C(=O)O)c(OCC(C)C)c1
490

Also check COCC(C)Cc1cc(OC)ccc1[C@@H]1c2nc(NC(C)C)ccc2[C@H](c2ccc3c(c2)OCO3)[C@H]1C(=O)O (stereo in doubt; form 1)
1900

Also check COc1ccc([C@@H]2c3nc(NC(C)C)ccc3[C@H](c3ccc4c(c3)OCO4)[C@H]2C(=O)O)c(CC(C)C(=O)N(C)C)c1 (single isomer, unassigned)
680

* * *

Protein target, amino acids: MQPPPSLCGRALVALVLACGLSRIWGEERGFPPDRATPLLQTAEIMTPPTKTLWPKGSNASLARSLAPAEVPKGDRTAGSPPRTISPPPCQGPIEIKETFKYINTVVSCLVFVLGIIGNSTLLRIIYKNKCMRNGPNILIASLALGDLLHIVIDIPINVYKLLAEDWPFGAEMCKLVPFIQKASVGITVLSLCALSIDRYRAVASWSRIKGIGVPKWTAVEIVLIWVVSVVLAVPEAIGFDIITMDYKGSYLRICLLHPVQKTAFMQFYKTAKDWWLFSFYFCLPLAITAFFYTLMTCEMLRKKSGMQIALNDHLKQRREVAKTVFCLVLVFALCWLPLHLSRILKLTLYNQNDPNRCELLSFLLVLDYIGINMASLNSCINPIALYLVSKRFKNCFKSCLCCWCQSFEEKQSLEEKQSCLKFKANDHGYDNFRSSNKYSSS
experimental.endpoint: IC50
Note: a bare number is incomplete; add the unit.

Recorded IC50 of COc1ccc([C@@H]2c3nc(NC(C)C)ccc3[C@H](c3ccc4c(c3)OCO4)[C@H]2C(=O)O)c(OCc2ccccc2)c1 , please.
480 nM

Also check COc1ccc([C@@H]2c3nc(NC(C)C)ccc3[C@H](c3ccc4c(c3)OCO4)[C@H]2C(=O)O)c(OC(C)CO)c1 (stereo in doubt; form 2)
78 nM

Also check COc1ccc([C@@H]2c3nc(NC(C)C)ccc3[C@H](c3ccc4c(c3)OCO4)[C@H]2C(=O)O)c(CC(C)C(=O)N(C)C)c1 (stereo in doubt)
43 nM

Also check COc1ccc([C@@H]2c3nc(NC(C)C)ccc3[C@H](c3ccc4c(c3)OCO4)[C@H]2C(=O)O)c(OC(C)CO)c1 (stereo in doubt; form 1)
61 nM
